Where do these numbers come from? They come from patent US10738074B2.

tested on: THP1 cells; test: IFN-β secretion in THP1 cell culture (5 h); format: cell-based, human; conditions: Homo sapiens, THP-1, 5 h, IFN-β secretion, THP1 cells, 5 h, 30 μM; read-out: % Effect at 30 μM relative to 2′3′-cGAMP
measured property: activation at 30 µM (%)
Your answer is read as %, so omit the unit and give the number.

# activation at 30 µM (compound: Nc1nc2c(ncn2[C@@H]2O[C@@H]3COP(=O)(O)O[C@@H]4[C@H](N)[C@@H](COP(=O)(O)O[C@@H]2[C@@H]3O)O[C@H]4n2cnc3c(N)ncnc32)c(=O)[nH]1 [Example 33] ) is 140

Field activation at 30 µM (entry Nc1nc2c(nnn2[C@@H]2O[C@@H]3COP(=O)(S)O[C@@H]4[C@H](F)[C@@H](COP(=O)(S)O[C@@H]2[C@@H]3F)O[C@H]4n2nnc3c(=O)[nH]c(N)nc32)c(=O)[nH]1 (stereo partly drawn) [Example 31] ) reads 57

The measured activation at 30 µM associated with Nc1nc2c(ncn2[C@@H]2O[C@@H]3COP(=O)(O)O[C@@H]4[C@H](F)[C@@H](COP(=O)(O)O[C@@H]2C3)O[C@H]4n2cnc3c(N)ncnc32)c(=O)[nH]1 [Example 10] reads 87

###

System: THP1 cells
Experiment: IFN-β secretion in THP1 cell culture (5 h)
Type: cell-based, human
Conditions: Homo sapiens, THP-1, 5 h, IFN-β secretion, THP1 cells, 5 h, 30 μM; read-out: % Effect at 30 μM relative to 2′3′-cGAMP
Protocol: The ability of compounds to stimulate the secretion of interferon-beta from THP1 cells was measured using a human IFN-β AlphaLISA kit (Perkin Elmer, Cat. No. AL265F). The basic protocol is as follows: […] The assay was started by dispensing 40 μL of the previously prepared cell suspension into the wells of the plate containing compounds. […] The plate was then read on a Perkin Elmer Envision (λex=680 nm, λem=570 nm). […]
measured property: activation at 30 µM (%)
Number in %, nothing else.

For reference, reported activation at 30 µM for `Nc1nc2c(ncn2[C@@H]2O[C@@H]3COP(=O)(O)O[C@@H]4[C@H](O)[C@@H](COP(=O)(O)O[C@@H]2[C@@H]3F)O[C@H]4n2cnc3c(N)ncnc32)c(=O)[nH]1` stands at 150

Record `Nc1nc2c(ncn2[C@@H]2O[C@@H]3COP(=O)(O)O[C@@H]4C[C@@H](COP(=O)(O)O[C@@H]2[C@@H]3O)O[C@H]4n2cnc3c(N)ncnc32)c(=O)[nH]1` . Reported activation at 30 µM: 121

compound `C[C@@H]1OP(=O)(O)O[C@@H]2[C@H](F)[C@@H](COP(=O)(O)O[C@@H]3[C@H](O)[C@@H]1O[C@H]3n1cnc3c(N)ncnc31)O[C@H]2n1cnc2c(=O)[nH]c(N)nc21` , activation at 30 µM observed: 36

###

test system: THP1 cells; test: IFN-β secretion in THP1 cell culture (5 h); format: cell-based, human; conditions: IFN-β secretion, THP1 cells, 5 h, 30 μM
Assign % Effect at 30 μM relative to 2′3′-cGAMP to each entry below.
Quick note: give the figure in %, leave out the unit.

The reported % Effect at 30 μM relative to 2′3′-cGAMP of the compound Nc1nc2c(ncn2[C@@H]2O[C@@H]3COP(O)(=S)O[C@@H]4[C@H](F)[C@@H](COP(O)(=S)O[C@@H]2[C@@H]3F)O[C@H]4n2cnc3c(=O)[nH]c(N)nc32)c(=O)[nH]1 (single isomer, unassigned) [Example 23] was 135

Given item Nc1nc2c(ncn2[C@H]2O[C@@H]3COP(=O)(O)O[C@@H]4[C@H](N)[C@@H](COP(=O)(O)O[C@@H]2[C@@H]3O)O[C@H]4n2cnc3c(N)ncnc32)c(=O)[nH]1 [Example 34] , the value recorded as its % Effect at 30 μM relative to 2′3′-cGAMP is 132

Notebook: Nc1nc2c(ncn2[C@@H]2O[C@@H]3COP(O)(=S)O[C@@H]4[C@H](F)[C@@H](COP(O)(=S)O[C@@H]2[C@@H]3F)O[C@H]4n2cnc3c(=O)[nH]c(N)nc32)c(=O)[nH]1 (single isomer, unassigned) [Example 22] , % Effect at 30 μM relative to 2′3′-cGAMP read as 129

Looking up Nc1nc2c(ncn2[C@@H]2O[C@@H]3COP(O)(=S)O[C@@H]4[C@H](F)[C@@H](COP(O)(=S)O[C@@H]2[C@@H]3F)O[C@H]4n2cnc3c(=O)[nH]c(N)nc32)c(=O)[nH]1 (single isomer, unassigned) [Example 24] , I found its % Effect at 30 μM relative to 2′3′-cGAMP recorded as 84

###

Assignment: determine reported activation at 30 µM for the given compounds.
tested on: THP1 cells; assay: IFN-β secretion in THP1 cell culture (5 h); format: cell-based, human; conditions: Homo sapiens, THP-1, 5 h, IFN-β secretion, THP1 cells, 5 h, 30 μM; read-out: % Effect at 30 μM relative to 2′3′-cGAMP
Write down the numeric answer in % and omit the unit.

Record Nc1nc2c(ncn2[C@@H]2O[C@@H]3COP(=O)(O)O[C@@H]4C[C@@H](COP(=O)(O)O[C@@H]2[C@@H]3F)O[C@H]4n2cnc3c(N)ncnc32)c(=O)[nH]1 [Example 9] has THP1 cells activation at 30 µM equal to 115

Field activation at 30 µM (system: THP1 cells) for entry Nc1nc2c(ncn2[C@@H]2O[C@@H]3COP(=O)(O)O[C@@H]4C[C@@H](COP(=O)(O)O[C@@H]2C3)O[C@H]4n2cnc3c(N)ncnc32)c(=O)[nH]1 [Example 12] = 50

# Nc1ncnc2c1ncn2[C@@H]1O[C@@H]2COP(=O)(S)O[C@@H]3[C@H](O)[C@@H](COP(=O)(S)O[C@@H]1[C@@H]2O)O[C@H]3n1cnc2c(N)ncnc21 (stereo partly drawn) [Example 27] with THP1 cells: activation at 30 µM is 76

###

biological target: full-length WT STING (Homo sapiens (Human), UniProt Q86WV6, H232R); assay: 3H-cGAMP filtration binding assay (WT STING); details: competition with tritiated cGAMP, WT STING membrane
Sequence (Q86WV6 other isoform, or with tags, fused parts or gaps H232R (already in the parent)): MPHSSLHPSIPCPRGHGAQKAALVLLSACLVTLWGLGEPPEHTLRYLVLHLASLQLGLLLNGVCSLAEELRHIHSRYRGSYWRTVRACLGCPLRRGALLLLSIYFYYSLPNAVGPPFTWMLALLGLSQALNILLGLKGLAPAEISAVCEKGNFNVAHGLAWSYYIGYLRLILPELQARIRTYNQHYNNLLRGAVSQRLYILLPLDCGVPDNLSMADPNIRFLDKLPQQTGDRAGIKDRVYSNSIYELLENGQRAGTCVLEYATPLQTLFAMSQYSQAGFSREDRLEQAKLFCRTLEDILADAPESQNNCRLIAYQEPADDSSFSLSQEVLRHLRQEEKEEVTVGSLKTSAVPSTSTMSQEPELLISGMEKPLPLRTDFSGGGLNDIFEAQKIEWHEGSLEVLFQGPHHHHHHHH
measured property: EC50

Lab note: Nc1nc2c(nnn2[C@@H]2O[C@@H]3COP(=O)(S)O[C@@H]4[C@H](F)[C@@H](COP(=O)(S)O[C@@H]2[C@@H]3F)O[C@H]4n2nnc3c(=O)[nH]c(N)nc32)c(=O)[nH]1 (stereo partly drawn) [Example 31] gave EC50 of < 1 nM

Consider Nc1nc2c(ncn2[C@@H]2O[C@@H]3COP(=O)(S)O[C@@H]4[C@@H](F)[C@@H](COP(=O)(S)O[C@@H]2[C@H]3F)O[C@H]4n2cnc3c(=O)[nH]c(N)nc32)c(=O)[nH]1 (stereo partly drawn) [Example 30] . Its measured EC50 is 7350 nM

For this compound ( Nc1nc2c(ncn2[C@@H]2O[C@@H]3COP(O)(=S)O[C@@H]4[C@H](F)[C@@H](COP(O)(=S)O[C@@H]2[C@@H]3F)O[C@H]4n2cnc3c(=O)[nH]c(N)nc32)c(=O)[nH]1 (single isomer, unassigned) [Example 23] ), measured EC50 is 4 nM

Field EC50 (entry Nc1nc2c(ncn2[C@@H]2O[C@@H]3COP(O)(=S)O[C@@H]4[C@H](F)[C@@H](COP(O)(=S)O[C@@H]2[C@@H]3F)O[C@H]4n2cnc3c(=O)[nH]c(N)nc32)c(=O)[nH]1 (single isomer, unassigned) [Example 24] ) reads 1.2 nM

Lab book: EC50 of Nc1nc2c(ncn2[C@@H]2O[C@@H]3COP(O)(=S)O[C@@H]4[C@H](F)[C@@H](COP(O)(=S)O[C@@H]2[C@@H]3F)O[C@H]4n2cnc3c(=O)[nH]c(N)nc32)c(=O)[nH]1 (single isomer, unassigned) [Example 22] noted as < 1 nM

EC50 reading for Nc1nc2c(ncn2[C@H]2O[C@@H]3COP(=O)(O)O[C@@H]4[C@H](N)[C@@H](COP(=O)(O)O[C@@H]2[C@@H]3O)O[C@H]4n2cnc3c(N)ncnc32)c(=O)[nH]1 [Example 34] : < 1 nM

###

tested on: THP1 cells; experiment: IFN-β secretion in THP1 cell culture (5 h); type: cell-based, human; details: Homo sapiens, THP-1, 5 h, IFN-β secretion, THP1 cells, 5 h, 30 μM; read-out: % Effect at 30 μM relative to 2′3′-cGAMP
Assign activation at 30 µM to each entry below.
Provide the measurement as a number trailed by its unit.

For record C[C@H]1OP(=O)(O)O[C@@H]2[C@H](F)[C@@H](COP(=O)(O)O[C@@H]3[C@H](O)[C@@H]1O[C@H]3n1cnc3c(N)ncnc31)O[C@H]2n1cnc2c(=O)[nH]c(N)nc21 [Example 7] the listed activation at 30 µM is 59%

Record Nc1nc2c(ncn2[C@@H]2O[C@@H]3COP(=O)(O)O[C@@H]4[C@H](F)[C@@H](COP(=O)(O)O[C@@H]2[C@@H]3O)O[C@H]4n2cnc3c(N)ncnc32)c(=O)[nH]1 [Example 4] . Reported activation at 30 µM: 104%

The compound listed as Nc1nc2c(ncn2[C@@H]2O[C@@H]3COP(=O)(O)O[C@@H]4[C@@H](F)[C@@H](COP(=O)(O)O[C@@H]2[C@@H]3F)O[C@H]4n2cnc3c(N)ncnc32)c(=O)[nH]1 [Example 13] has a reported activation at 30 µM of 128%

Entry Nc1nc2c(ncn2[C@@H]2O[C@@H]3COP(=O)(S)O[C@@H]4[C@H](O)[C@@H](COP(=O)(S)O[C@@H]2[C@@H]3O)O[C@H]4n2cnc3c(N)ncnc32)c(=O)[nH]1 (some centres unmarked) [Example 14] , activation at 30 µM reported as 150%

The reported value for Nc1nc2c(ncn2[C@@H]2O[C@@H]3COP(=O)(S)O[C@@H]4[C@@H](F)[C@@H](COP(=O)(S)O[C@@H]2[C@H]3F)O[C@H]4n2cnc3c(=O)[nH]c(N)nc32)c(=O)[nH]1 (some centres unmarked) [Example 30] in terms of activation at 30 µM is 8%
